Reference for the values: patent US20260365670A1

// reported log10(IC50) for each item listed
assay target: EGFR L858R/T790M (Homo sapiens, UniProt P00533, L858R/T790M)
Construct: purchased Carna Bio
Sequence (P00533 25-1210 T790M/L858R): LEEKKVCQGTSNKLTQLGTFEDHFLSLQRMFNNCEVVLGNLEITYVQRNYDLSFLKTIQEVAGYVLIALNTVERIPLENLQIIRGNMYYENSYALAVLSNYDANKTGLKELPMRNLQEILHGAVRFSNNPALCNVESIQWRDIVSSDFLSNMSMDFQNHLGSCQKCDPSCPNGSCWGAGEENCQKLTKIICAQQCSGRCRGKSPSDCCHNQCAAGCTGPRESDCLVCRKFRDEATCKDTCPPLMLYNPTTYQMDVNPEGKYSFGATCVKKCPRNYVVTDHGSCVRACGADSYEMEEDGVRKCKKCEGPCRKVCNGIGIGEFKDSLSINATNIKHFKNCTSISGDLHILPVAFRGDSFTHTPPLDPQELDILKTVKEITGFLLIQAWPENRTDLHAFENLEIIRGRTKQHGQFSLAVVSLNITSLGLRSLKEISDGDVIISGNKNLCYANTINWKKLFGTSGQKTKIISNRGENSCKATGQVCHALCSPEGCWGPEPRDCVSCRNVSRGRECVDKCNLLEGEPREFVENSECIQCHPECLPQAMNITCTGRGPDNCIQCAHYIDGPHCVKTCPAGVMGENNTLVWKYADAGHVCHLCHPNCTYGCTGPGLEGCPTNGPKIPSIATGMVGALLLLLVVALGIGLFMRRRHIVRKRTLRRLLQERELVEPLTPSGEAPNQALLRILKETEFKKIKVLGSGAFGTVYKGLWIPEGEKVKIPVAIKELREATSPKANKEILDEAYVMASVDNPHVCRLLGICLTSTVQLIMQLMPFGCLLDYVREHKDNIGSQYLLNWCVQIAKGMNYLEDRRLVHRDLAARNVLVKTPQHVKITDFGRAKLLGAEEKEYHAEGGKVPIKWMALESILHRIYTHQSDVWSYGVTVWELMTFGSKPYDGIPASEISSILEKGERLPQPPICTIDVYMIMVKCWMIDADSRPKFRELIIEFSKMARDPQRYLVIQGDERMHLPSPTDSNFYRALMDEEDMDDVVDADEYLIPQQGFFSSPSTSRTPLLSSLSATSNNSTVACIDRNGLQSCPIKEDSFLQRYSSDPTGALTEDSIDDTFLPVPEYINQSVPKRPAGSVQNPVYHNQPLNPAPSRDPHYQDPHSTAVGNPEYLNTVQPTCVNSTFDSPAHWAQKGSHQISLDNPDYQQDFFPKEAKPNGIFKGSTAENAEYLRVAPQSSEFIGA
experiment: Inhibition of EGFR L858R/T790M biochemical enzymatic activity (HTRF)
cond: EGFR L858R-T790M, 1 mM ATP, 1 h, room temperature, read-out: IC50 (nM) @L858R-T790M
reported endpoint: log10(IC50) (log10 of the value in nM)

INSERT INTO results (molecule, assay_target, result_value) VALUES
  ('Cn1ncc2c1OCCN1CC3CCC(C3)(C1)n1c(nc3ccc(N4CC(N5CCOCC5)C4)cc31)NC(=O)c1cc-2c(=O)n(C)c1 (single isomer, unassigned) [Example A69B]', 'EGFR L858R/T790M (Homo sapiens, UniProt P00533, L858R/T790M)', 0.45),
  ('Cn1ncc2c1OCCN1CC3CCC(C3)(C1)n1c(nc3ccc(N4CCN(C5COC5)CC4)cc31)NC(=O)c1cc-2c(=O)n(C)c1 (single isomer, unassigned) [Example A71B]', 'EGFR L858R/T790M (Homo sapiens, UniProt P00533, L858R/T790M)', 0.45),
  ('C[C@@H]1CCCOc2c(cnn2C)-c2cc(cn(C)c2=O)C(=O)Nc2nc3ccc(N4CCOCC4)cc3n2C1', 'EGFR L858R/T790M (Homo sapiens, UniProt P00533, L858R/T790M)', 1.28),
  ('C[C@@H]1CCCOc2c(cnn2C)-c2cc(cn(C)c2=O)C(=O)Nc2nc3ccc(N(C)CCN(C)C)cc3n2C1', 'EGFR L858R/T790M (Homo sapiens, UniProt P00533, L858R/T790M)', 0.90),
  ('Cc1cc2cc(n1)-c1cnn(C)c1OCCN1CCCCC(C1)n1c(nc3ccccc31)NC2=O (stereo not drawn)', 'EGFR L858R/T790M (Homo sapiens, UniProt P00533, L858R/T790M)', 2.93),
  ('CC(C)N1CCN(c2ccc3nc4n(c3c2)C[C@H](C)CCCOc2c(cnn2C)-c2cc(cn(C)c2=O)C(=O)N4)CC1', 'EGFR L858R/T790M (Homo sapiens, UniProt P00533, L858R/T790M)', 0.83),
  ('Cc1cc2cc(n1)-c1cnn(C)c1OCCN(CC(F)F)CCn1c(nc3ccccc31)NC2=O', 'EGFR L858R/T790M (Homo sapiens, UniProt P00533, L858R/T790M)', 1.11),
  ('Cn1ncc2c1OCCN1CC3CCC(CC3)(C1)n1c(nc3ccc(N4CCN(C5CC5)CC4)cc31)NC(=O)c1cc-2c(=O)n(C)c1', 'EGFR L858R/T790M (Homo sapiens, UniProt P00533, L858R/T790M)', 2.49);

* * *

assay target: EGFR (d746-750 C797S) (Homo sapiens, UniProt P00533, C797S/DEL746-750)
Construct: purchased signalchem
Sequence (P00533 with tags, fused parts or gaps DEL746-750/C797S limits assumed): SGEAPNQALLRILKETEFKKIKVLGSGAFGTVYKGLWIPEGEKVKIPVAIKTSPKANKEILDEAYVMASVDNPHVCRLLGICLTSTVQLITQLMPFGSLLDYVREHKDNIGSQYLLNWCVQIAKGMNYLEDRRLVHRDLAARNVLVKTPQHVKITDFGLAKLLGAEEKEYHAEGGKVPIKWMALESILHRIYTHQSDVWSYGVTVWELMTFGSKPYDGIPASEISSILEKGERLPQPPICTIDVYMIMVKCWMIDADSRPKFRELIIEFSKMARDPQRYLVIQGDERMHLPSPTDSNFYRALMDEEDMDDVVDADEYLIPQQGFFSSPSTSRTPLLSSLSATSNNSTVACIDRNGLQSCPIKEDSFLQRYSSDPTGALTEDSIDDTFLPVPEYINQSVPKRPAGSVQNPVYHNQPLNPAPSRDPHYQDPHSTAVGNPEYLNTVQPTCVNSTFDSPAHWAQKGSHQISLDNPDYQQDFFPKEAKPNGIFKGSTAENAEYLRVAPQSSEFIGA
experiment: Inhibition of EGFR (d746-750 C797S) biochemical enzymatic activity (HTRF)
cond: EGFR Del19-C797S, 1 mM ATP, 1 h, room temperature, read-out: IC50 (nM) @Del19-C797S
Description: Biological Example 1: Inhibition of EGFR WT and Mutant Biochemical Enzymatic Activity The inhibition potency of compounds against these enzymes was assessed using Homogenous Time Resolved Fluorescence approach (HTRF, CisBio. Cat No. 62TKOPEJ). Inhibitory effects of the compounds were determined by measuring the enzymatic activity of EGFR enzyme phosphorylates 1 μM TK Substrate-biotin in the presence of 1 mM adenosine-5′-triphosphate (ATP) and varying concentrations of the test compound. […]
reported endpoint: IC50 (nM)

INSERT INTO assay_data (compound, assay_target, result_value) VALUES
  ('Cn1ncc2c1OCCN1CCCCC(C)(C1)n1c(nc3ccc(N4CCOCC4)cc31)NC(=O)c1cc-2c(=O)n(C)c1 (stereo not shown) [Example A13]', 'EGFR (d746-750 C797S) (Homo sapiens, UniProt P00533, C797S/DEL746-750)', 780),
  ('CN1CCN(c2ccc3nc4n(c3c2)C23CCC(CC2)CN(CCOc2c(cnn2C)-c2cc(cn(C)c2=O)C(=O)N4)C3)CC1 [Example A75]', 'EGFR (d746-750 C797S) (Homo sapiens, UniProt P00533, C797S/DEL746-750)', 2.8),
  ('CC1CCCCOc2c(cnn2C)-c2cc(cn(C)c2=O)C(=O)Nc2nc3ccc(N4CCN(C)CC4)cc3n21 (stereo not shown) [Example A19]', 'EGFR (d746-750 C797S) (Homo sapiens, UniProt P00533, C797S/DEL746-750)', 19),
  ('Cn1ncc2c1OCCN1CC(CCC1(C)C)n1c(nc3ccc(N4CCOCC4)cc31)NC(=O)c1cc-2c(=O)n(C)c1 (stereo not shown) [Example A12]', 'EGFR (d746-750 C797S) (Homo sapiens, UniProt P00533, C797S/DEL746-750)', 119);

* * *

assay target: EGFR[T790M/C797S/d746-750] (Homo sapiens, UniProt P00533, C797S/DEL746-750/T790M)
Construct: purchased Carna Bio
Sequence (P00533 with tags, fused parts or gaps DEL746-750/T790M/C797S limits assumed): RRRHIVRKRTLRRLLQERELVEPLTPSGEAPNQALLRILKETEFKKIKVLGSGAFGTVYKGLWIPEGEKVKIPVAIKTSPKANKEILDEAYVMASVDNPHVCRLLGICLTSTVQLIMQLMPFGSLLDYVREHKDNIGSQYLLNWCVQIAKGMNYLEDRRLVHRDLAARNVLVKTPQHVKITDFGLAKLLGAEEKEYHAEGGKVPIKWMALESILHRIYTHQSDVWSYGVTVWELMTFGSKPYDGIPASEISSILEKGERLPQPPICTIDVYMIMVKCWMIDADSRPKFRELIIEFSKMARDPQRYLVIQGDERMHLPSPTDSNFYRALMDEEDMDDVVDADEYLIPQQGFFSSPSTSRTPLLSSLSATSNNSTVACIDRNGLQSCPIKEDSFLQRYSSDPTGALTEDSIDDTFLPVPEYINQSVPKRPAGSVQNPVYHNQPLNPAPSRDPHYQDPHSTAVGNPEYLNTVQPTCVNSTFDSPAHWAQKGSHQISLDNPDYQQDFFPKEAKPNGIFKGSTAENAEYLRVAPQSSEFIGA
experiment: Inhibition of EGFR[T790M/C797S/d746-750] biochemical enzymatic activity (HTRF)
cond: EGFR[T790M/C797S/d746-750], 1 mM ATP, 1 h at room temperature, read-out: IC50 @T790M - C797S - Del19
Method: Biological Example 1: Inhibition of EGFR WT and Mutant Biochemical Enzymatic Activity The inhibition potency of compounds against these enzymes was assessed using Homogenous Time Resolved Fluorescence approach (HTRF, CisBio. Cat No. 62TKOPEJ). Inhibitory effects of the compounds were determined by measuring the enzymatic activity of EGFR enzyme phosphorylates 1 μM TK Substrate-biotin in the presence of 1 mM adenosine-5′-triphosphate (ATP) and varying concentrations of the test compound. […]
Here the recorded log10 IC50 is given for each entry.
reported endpoint: log10 IC50 (log10 of the value in nM)

INSERT INTO assay_data (molecule, reported_endpoint, result_value) VALUES
  ('Cc1cc2cc(n1)-c1cnn(C)c1OCCN1CC3CCC(C3)(C1)n1c(nc3ccc(N4CC[C@@H](N(C)C)C4)cc31)NC2=O (single isomer, unassigned) [Example B42B]', 'log10 IC50', 0.80),
  ('Cc1cc2cc(n1)-c1cnn(C)c1OCCN1CCOCC(C1)n1c(nc3ccccc31)NC2=O (stereo not drawn) [Example B7]', 'log10 IC50', 1.64),
  ('Cc1cc2cc(n1)-c1cnn(C)c1OCCN1CC3CCC(CC3)(C1)n1c(nc3ccc(N4CCC5(CCN(C)CC5)C4)cc31)NC2=O [Example B38]', 'log10 IC50', 0.91),
  ('Cc1cc2cc(n1)-c1cnn(C)c1OCCCCCn1c(nc3ccn(C)c(=O)c31)NC2=O [Example B20]', 'log10 IC50', 2.09),
  ('Cc1cc2cc(n1)-c1cnn(C)c1OCCN1CC3CCC(CC3)(C1)n1c(nc3ccc(N4CCC5(CCN(C)CC5)C4)cc31)NC2=O [Example B31]', 'log10 IC50', 0.86),
  ('Cc1cc2cc(n1)-c1cnn(C)c1OCCN1CC3CCC(C3)(C1)n1c(nc3ccc(N4CCC5(CCN(C)C5)CC4)cc31)NC2=O (single isomer, unassigned) [Example B52B]', 'log10 IC50', 0.30);

* * *

assay target: EGFR[T790M/C797S/d746-750] (Homo sapiens, UniProt P00533, C797S/DEL746-750/T790M)
Construct: purchased Carna Bio
experiment: Inhibition of EGFR[T790M/C797S/d746-750] biochemical enzymatic activity (HTRF)
cond: EGFR T790M-C797S-Del19, 1 mM ATP, 1 h, room temperature, read-out: IC50 (nM) @T790M - C797S - Del19
IC50 overview
reported endpoint: IC50 (nM)

INSERT INTO results (compound, assay_target, reported_endpoint, relation_sign, result_value) VALUES
  ('C[C@@H]1CCCOc2c(cnn2C)-c2cc(cn(C)c2=O)C(=O)Nc2nc3ccc(N4CC5(CN(C)CCO5)C4)cc3n2C1', 'EGFR[T790M/C797S/d746-750] (Homo sapiens, UniProt P00533, C797S/DEL746-750/T790M)', 'IC50', '=', 4.2),
  ('C[C@@H]1CCCOc2c(cnn2C)-c2cc(cn(C)c2=O)C(=O)Nc2nc3ccc(N4CCC(N(C)C)C4)cc3n2C1 (stereo partly drawn)', 'EGFR[T790M/C797S/d746-750] (Homo sapiens, UniProt P00533, C797S/DEL746-750/T790M)', 'IC50', '=', 13),
  ('Cn1ncc2c1OCCN1CC3CCC(CC3)(C1)n1c(nc3ccc(N4CCOCC4)cc31)NC(=O)c1cc-2c(=O)n(C)c1', 'EGFR[T790M/C797S/d746-750] (Homo sapiens, UniProt P00533, C797S/DEL746-750/T790M)', 'IC50', '=', 6.8),
  ('Cn1ncc2c1OCCN1CC3CCC(C3)(C1)n1c(nc3ccccc31)NC(=O)c1cc-2c(=O)n(C)c1 (single isomer, unassigned) [Example A61A]', 'EGFR[T790M/C797S/d746-750] (Homo sapiens, UniProt P00533, C797S/DEL746-750/T790M)', 'IC50', '>', 5000),
  ('CC(C)N1CCN(c2ccc3nc4n(c3c2)C23CCC(CN(CCOc5c(cnn5C)-c5cc(cn(C)c5=O)C(=O)N4)C2)C3)CC1 (single isomer, unassigned) [Example A108B]', 'EGFR[T790M/C797S/d746-750] (Homo sapiens, UniProt P00533, C797S/DEL746-750/T790M)', 'IC50', '=', 1.4),
  ('CN(C)C1CN(c2ccc3nc4n(c3c2)C23CCC(CN(CCOc5c(cnn5C)-c5cc(cn(C)c5=O)C(=O)N4)C2)C3)CC1(F)F (single isomer, unassigned) [Example A99B]', 'EGFR[T790M/C797S/d746-750] (Homo sapiens, UniProt P00533, C797S/DEL746-750/T790M)', 'IC50', '=', 7.7),
  ('Cn1ncc2c1OCCN(C1COC1)CCn1c(nc3ccccc31)NC(=O)c1cc-2c(=O)n(C)c1', 'EGFR[T790M/C797S/d746-750] (Homo sapiens, UniProt P00533, C797S/DEL746-750/T790M)', 'IC50', '=', 560),
  ('CCC1CCCOc2c(cnn2C)-c2cc(cn(C)c2=O)C(=O)Nc2nc3ccc(N4CCN(C)CC4)cc3n2C1 (single isomer, unassigned) [Example A16A]', 'EGFR[T790M/C797S/d746-750] (Homo sapiens, UniProt P00533, C797S/DEL746-750/T790M)', 'IC50', '=', 115),
  ('Cn1ncc2c1OCCN1CC3CCC(C3)(C1)n1c(nc3ccc(N4CCC(N5CCOCC5)C4)cc31)NC(=O)c1cc-2c(=O)n(C)c1 (single isomer, unassigned) [Example A104B]', 'EGFR[T790M/C797S/d746-750] (Homo sapiens, UniProt P00533, C797S/DEL746-750/T790M)', 'IC50', '=', 5.9),
  ('Cn1ncc2c1OCCN1CC3CCC(C3)(C1)n1c(nc3cc(F)ccc31)NC(=O)c1cc-2c(=O)n(C)c1 (stereo not drawn) [Example A117B]', 'EGFR[T790M/C797S/d746-750] (Homo sapiens, UniProt P00533, C797S/DEL746-750/T790M)', 'IC50', '=', 2.5),
  ('CN1CCC2(CC1)CN(c1ccc3nc4n(c3c1)C13CCC(CN(CCOc5c(cnn5C)-c5cc(cn(C)c5=O)C(=O)N4)C1)C3)C2 (single isomer, unassigned) [Example A77A]', 'EGFR[T790M/C797S/d746-750] (Homo sapiens, UniProt P00533, C797S/DEL746-750/T790M)', 'IC50', '>', 5000),
  ('C[C@@H]1CCCOc2c(cnn2C)-c2cc(cn(C)c2=O)C(=O)Nc2nc3ccc(N4CC5(CCN(C)CC5(F)F)C4)cc3n2C1', 'EGFR[T790M/C797S/d746-750] (Homo sapiens, UniProt P00533, C797S/DEL746-750/T790M)', 'IC50', '=', 16);
